System: SEM cells
Experiment: cell viability relative to DMSO control; higher = less cytotoxic
Conditions: RPMI 5 mM glucose + 10% dialyzed FBS; 48 h; 0.000781 µM
measurementType: cell viability (%)
Value expressed in %; do not type the unit.

Requested read-out cell viability, target or system SEM cells, entry `COc1ccc(CCN2CCN(CCCc3ccccc3)CC2)cc1OC` 115

Moving on to the next compound: `CC(C)(C)OC(=O)CN(Cc1ccc(Cl)cc1)Cc1ccc([N+](=O)[O-])s1` 90.7

Moving on to the next compound: `CCC(=O)O[C@@]1([C@@H](C)C[C@H]2[C@@H]3CCC/4=C/C(=O)/C=C\[C@]4(C)[C@@]3(F)[C@@H](O)C[C@]12C)C(=O)CCl` 85.2

Moving on to the next compound: `Cc1ccc(-n2nc(C(C)(C)C)cc2NC(=O)Nc2ccc(OCCN3CCOCC3)c3ccccc23)cc1` 89.9

Moving on to the next compound: `Cc1nc(Nc2ncc(C(=O)Nc3c(C)cccc3Cl)s2)cc(N2CCN(CCO)CC2)n1` 100

Moving on to the next compound: `C[C@]\1(CCS\C(=N1)N)C2=CC(=C(F)C=C2F)C3=CN=CN=C3` 95.1

Moving on to the next compound: `COC[C@H](NC(=O)c1cnc(C)s1)C(=O)N[C@@H](COC)C(=O)N[C@@H](Cc1ccccc1)C(=O)[C@@]1(C)CO1` 81.9

Moving on to the next compound: `CO[C@H]1C[C@@H]2CC[C@@H](C)[C@@](O)(O2)C(=O)C(=O)N2CCCC[C@H]2C(=O)O[C@H]([C@H](C)C[C@@H]2CC[C@@H](OP(C)(C)=O)[C@H](OC)C2)CC(=O)[C@H](C)/C=C(\C)[C@@H](O)[C@@H](OC)C(=O)[C@H](C)C[C@H](C)/C=C/C=C/C=C/1C` 105

Moving on to the next compound: `O=C(NC1CCOCC1)c1ccc(-c2cc(-c3c[nH]nc3-c3ccccn3)ccn2)cc1` 98.7

Moving on to the next compound: `C[C@@H]1C[C@H]2[C@@H]3\C=C(C)/C4=C/C5=C(C[C@]4(C)[C@H]3[C@@H](O)C[C@]2(C)[C@@]1(O)C(=O)COC(C)=O)C=N[N]5C6=CC=CC=C6` 143

Moving on to the next compound: `O=C(Nc1ccc(OC(F)(F)F)cc1)c1sccc1NCc1ccnc2ccccc12` 122

Moving on to the next compound: CCCCN(CCCC)CCC(O)c1cc2c(Cl)cc(Cl)cc2c2cc(C(F)(F)F)ccc12 (stereo not given) 92.1

Moving on to the next compound: `C[N]1C=NC=C1[C@@](N)(C2=CC=C(Cl)C=C2)C3=CC=C4N(C)C(=O)\C=C(\C5=CC=CC(=C5)Cl)C4=C3` 105

Moving on to the next compound: `COc1ccc(Cc2nccc3cc(OC)c(OC)cc23)cc1OC` 109

Moving on to the next compound: COCCOC(=O)C/1=C(C)/NC/2=C(C1C3=CC=CC(=C3)O)/C(=O)CC(C2)C4=C(OC)C=CC=C4 (stereo not given) 80.8

Moving on to the next compound: `C[C@H](NC(=O)C(=O)Nc1ccccc1C(C)(C)C)C(=O)N[C@@H](CC(=O)O)C(=O)COc1c(F)c(F)cc(F)c1F` 90.8

Moving on to the next compound: `N[C@@H](C(=O)N[C@H]1[C@H]2SC\C(=C(/N2C1=O)C(O)=O)Cl)C3=CC=CC=C3` 119

Moving on to the next compound: `COC(=O)N1CCN(Cc2cccc(NC(=O)Nc3ccc(C)nc3)c2F)CC1` 90.3

Moving on to the next compound: `COc1cc(N2CCC(O)CC2)ccc1Nc1cc(Nc2ccccc2[S+](=O)([O-])C(C)C)c2cc[nH]c2n1` 93.2

Moving on to the next compound: `C[C@@H](c1ncncc1F)[C@](O)(Cn1cncn1)c1ccc(F)cc1F` 123

Moving on to the next compound: `CC[C@]1(O)C[C@H]2CN(CCC3=C([NH]C4=C3C=CC=C4)[C@@](C2)(C(=O)OC)C5=CC6=C(C=C5OC)N(C=O)[C@H]7[C@](O)([C@H](OC(C)=O)[C@]8(CC)\C=C/C[N@@]9CC[C@]67[C@H]89)C(=O)OC)C1` 99.8

Moving on to the next compound: `Nc1ccccc1NC(=O)c1ccc(CNc2nccc(-c3cccnc3)n2)cc1` 92.7

Moving on to the next compound: `CC(C)(C)/[N+]([O-])=C/c1ccc([S+](=O)([O-])[O][Na])cc1[S+](=O)([O-])[O][Na]` 95.7

Moving on to the next compound: `CCNC(=O)C[C@@H]1\N=C(C2=CC=C(Cl)C=C2)/C3=C(C=CC(=C3)OC)[N]4C(=NN=C14)C` 106

Moving on to the next compound: `NC(=O)c1ccc(-c2nc(-c3ccc4c(c3)OCCO4)c(-c3ccccn3)[nH]2)cc1` 119

###

Test system: NOMO1
Test: cell viability relative to DMSO control; higher = less cytotoxic
Settings: RPMI 5 mM glucose + 10% dialyzed FBS; 48 h; 0.00702 µM
I'd be grateful if you could share measured cell viability for these entries.
Value expressed in %; do not type the unit.

Which cell viability value is on record for `Clc1ccc(C2(c3ccc(-c4cn[nH]c4)cc3)CCNCC2)cc1` ? 83.4

Moving on to the next compound: `O=C/1\C=C(/OC(=C1)/C2=C3SC4=C(SC3=CC=C2)C=CC=C4)N5CCOCC5` 98.1

Moving on to the next compound: `C1Cc2[nH]nc(-c3nn[nH]n3)c2C1` 131

Moving on to the next compound: `COc1cc(N2CCC(O)CC2)ccc1Nc1cc(Nc2ccccc2[S+](=O)([O-])C(C)C)c2cc[nH]c2n1` 97.3

Moving on to the next compound: `COc1cc2nccc(Oc3ccc(NC(=O)Nc4ccc(F)cc4F)c(F)c3)c2cc1OC` 103

###

I'd be grateful if you could share measured cell viability for these entries.
Test system: P12-Ichikawa
Test: cell viability relative to DMSO control; higher = less cytotoxic
Conditions: HPLM + 10% dialyzed FBS; 48 h; 0.00702 µM
Write the figure, then the unit, nothing else.

Which cell viability value is on record for `C[C@@H]1CC[C@@]2(OC1)O[C@H]3C[C@H]4[C@@H]5C/C=C6/C[C@H](CC[C@]6(C)[C@H]5CC[C@]4(C)[C@H]3[C@@H]2C)O[C@@H]7O[C@H](CO)[C@@H](O[C@@H]8O[C@@H](C)[C@H](O)[C@@H](O)[C@H]8O)[C@H](O)[C@H]7O[C@@H]9O[C@@H](C)[C@H](O)[C@@H](O)[C@H]9O` ? 119%

Moving on to the next compound: `COc1cc(N2CCC(C(N)=O)CC2)ccc1Nc1nc(N)c(Cl)c(Nc2ccccc2[S+](=O)([O-])C(C)C)n1` 102%

Moving on to the next compound: O=C1CSC(=O)N1C(CCc1ccncc1)COc1ccc(-c2cccc([N+](=O)[O-])c2)cc1 (configuration not stated) 122%

Moving on to the next compound: `CC/1=C/N([C@@H]2C[C@@H](O)[C@H](CO)O2)C(=O)NC1=O` 96.2%

Moving on to the next compound: `CNC(=O)c1ccc(Nc2ncc(C(F)(F)F)c(NCc3nccnc3N(C)[S+](C)(=O)[O-])n2)cc1` 117%

Moving on to the next compound: `CC(C)OC(=O)CCC/C=C\C[C@@H]1[C@@H](/C=C/[C@@H](O)COc2cccc(C(F)(F)F)c2)[C@H](O)C[C@@H]1O` 122%

Moving on to the next compound: `Cl.c1cnc2cc3c(cc2n1)C1CNCC3C1` 114%

###

Test system: SEM cells
Assay: cell viability relative to DMSO control; higher = less cytotoxic
Details: RPMI 5 mM glucose + 10% dialyzed FBS; 48 h; 0.19 µM
measurementType: cell viability (%)
Value expressed in %; do not type the unit.

Which cell viability value is on record for `COc1cc2nccc(Oc3ccc(NC(=O)C4(C(=O)Nc5ccc(F)cc5)CC4)cc3)c2cc1OC` ? 43.7

Moving on to the next compound: `CCC[C@@H]1C[C@@H](C(=O)N[C@@H]([C@H]2O[C@H](SC)[C@H](O)[C@@H](O)[C@H]2O)[C@@H](C)O)N(C)C1.Cl` 133

Moving on to the next compound: `COc1ccc(/C=C\c2cc(OC)c(OC)c(OC)c2)cc1O` 10.5

Moving on to the next compound: `Nc1ccccc1NC(=O)c1ccc(CNc2nccc(-c3cccnc3)n2)cc1` 105

Moving on to the next compound: `Nc1nc(-c2nn(Cc3ccccc3F)c3ncccc23)nc(N)c1N1CCOCC1` 85.2

Moving on to the next compound: `O=C1NC(=O)[C@@H](c2cn3c4c(cccc24)CCC3)[C@@H]1c1c[nH]c2ccccc12` 83.2

Moving on to the next compound: `CO[C@H]1C[C@@H]2CC[C@@H](C)[C@@](O)(O2)C(=O)C(=O)N2CCCC[C@H]2C(=O)O[C@H]([C@H](C)C[C@@H]2CC[C@@H](OP(C)(C)=O)[C@H](OC)C2)CC(=O)[C@H](C)/C=C(\C)[C@@H](O)[C@@H](OC)C(=O)[C@H](C)C[C@H](C)/C=C/C=C/C=C/1C` 40.3
